Values from the RNAGym collection of RNA variant scans (doi:10.7554/elife.90254)

B1: LINE1-full (parent)
chain: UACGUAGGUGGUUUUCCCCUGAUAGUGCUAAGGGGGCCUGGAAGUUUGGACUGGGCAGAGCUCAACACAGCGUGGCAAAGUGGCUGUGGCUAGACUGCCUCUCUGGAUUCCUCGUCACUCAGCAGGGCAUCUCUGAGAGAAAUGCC

- Variants of: B1
- test_method_notes: self-cleavage, relative activity (ratio to wild type); higher = more cleavage; in vitro, sequencing; the parent is a self-cleaving ribozyme
quantity_name: self-cleavage
Numbers only.

Provide self-cleavage values for the following items, in order.
1. A24G G27U
2. G58A G144A
3. G21A C120A

1. 1.17
2. 0.04
3. 1.11

Provide self-cleavage values for the following items, in order.
1. C37U U102A
2. A22U C38A
3. C19U A140U

1.19
0.64
0.82
